STUDY TARGET: UniProtKB P33981
RUN DESCRIPTION: TTK assay: screening of TTK kinase activity suppressing action using p38 MAPK peptide
Type: biochemical
CONDITION SET: p38 MAPK peptide substrate; read-out: TTK IC50
Hi all, reminder that labels come from IC50, split as low interval (below 4 nM), middle interval (4 nM to below 10 nM), high interval (10 nM or more)

A selection of reference data follows.
{"COMPOUND": "CC(CNc1cc(NC2CCCCC2)nn2c(-c3ccc(C(=O)NC4CC4)cc3)cnc12)C(F)(F)F (stereo not drawn)", "CLASS ASSIGNMENT": "low interval"}
{"COMPOUND": "COCC(C)Nc1cc(NCC2CCOCC2)c2ncc(-c3ccc(C(=O)NC4CC4)cc3)n2n1 (stereo not drawn)", "CLASS ASSIGNMENT": "high interval"}

Returns: class label. Input: "N#Cc1ccc(-c2cn3c(-c4ccc(C(=O)NC5CC5)cc4)cnc3c(NCCC3CCOCC3)n2)cc1"
middle interval

For the record "O=C(NC1CC1)c1ccc(-c2cnc3c(NCC4CCOCC4)cc(N4CCCC4)nn23)cc1" , report the class its IC50 corresponds to.
high interval

Please let me know in which category the item "Cc1cccc(C)c1Oc1cc(NCC2CCOCC2)c2ncc(-c3ccc(C(=O)NC4CC4)cc3)n2n1" belongs.
high interval

* * *

Tested on: A549
RUN DESCRIPTION: A549 assay: screening of cancer cell growth inhibiting compound
Type: cell-based
CONDITION SET: Homo sapiens, 72 h; A549 cells, three days, WST-8; read-out: A549 IC50
OBSERVED PROPERTY: IC50

Reference set (6 entries):
{"COMPOUND": "O=C(NC1CC1)c1ccc(-c2cnc3c(NCC4CCOCC4)cc(NCC4CCCCC4)nn23)cc1", "EXPERIMENTAL RESULT": "50 to 500 nM"}
{"COMPOUND": "Cc1cccc(Oc2cc(NCC3CCOCC3)c3ncc(-c4ccc(C(=O)NC5CC5)cc4)n3n2)c1", "EXPERIMENTAL RESULT": "50 to 500 nM"}
{"COMPOUND": "N#Cc1ccc(-c2cn3c(-c4ccc(C(=O)NC5CC5)cc4)cnc3c(NCCc3cccc(O)c3)n2)cc1", "EXPERIMENTAL RESULT": "500 to 1000 nM"}
{"COMPOUND": "N#Cc1ccc(-c2cn3c(-c4ccc(C(=O)NC5CC5)cc4)cnc3c(NCCCO)n2)cc1", "EXPERIMENTAL RESULT": "50 to 500 nM"}
{"COMPOUND": "CC(C)CNc1nc(-c2cccc(C#N)c2)cn2c(-c3ccc(C(=O)NC4CC4)cc3)cnc12", "EXPERIMENTAL RESULT": "500 to 1000 nM"}
{"COMPOUND": "CCC(C)Nc1cc(NC2CCCCC2)nn2c(-c3ccc(C(=O)NC4CC4)cc3)cnc12 (stereo not drawn)", "EXPERIMENTAL RESULT": "500 to 1000 nM"}

// each listed compound needs a value for IC50
1. C#CC(CC)(CC)Nc1cc(NCC2CCOCC2)c2ncc(-c3ccc(C(=O)NC4CC4)cc3)n2n1
2. CC(=O)Nc1ccc(-c2cn3c(-c4ccc(C(=O)NC5CC5)cc4)cnc3c(NCC(C)C)n2)cc1
3. N#Cc1ccc(-c2cn3c(-c4ccc(C(=O)NC5CC5)cc4)cnc3c(NCC3CCOCC3)n2)cn1
4. N#Cc1ccc(-c2cn3c(-c4ccc(C(=O)NC5CC5)cc4)cnc3c(NCCc3ccc(O)cc3)n2)cc1

1: 500 to 1000 nM; 2: 500 to 1000 nM; 3: 50 to 500 nM; 4: 500 to 1000 nM

* * *

Task for the reader: assign each of the following compounds its reported pIC50.
Test system: A549
RUN DESCRIPTION: A549 assay: screening of cancer cell growth inhibiting compound
Format: cell-based
CONDITION SET: Homo sapiens, 72 h; A549 cells, three days, WST-8; read-out: A549 IC50
pIC50: −log10 of the molar value.

{"COMPOUND": "O=C(NC1CC1)c1ccc(-c2cnc3c(NCC4CCOCC4)cc(NC4CCOCC4)nn23)cc1 [Example 2-13]", "pIC50": "6.30 to 7.30"}
{"COMPOUND": "C#CC1(Nc2cc(NCC3CCOCC3)c3ncc(-c4ccc(C(=O)NC5CC5)cc4)n3n2)CCCCC1 [Example 2-77]", "pIC50": "6.00 to 6.30"}
{"COMPOUND": "O=C(NC1CC1)c1ccc(-c2cnc3c(NCC4CCC4)cc(NC4CCCCC4)nn23)cc1 [Example 2-128]", "pIC50": "6.30 to 7.30"}

Continue with the next compound.
May I ask what pIC50 has been recorded for N#Cc1ccc(-c2cn3c(-c4ccc(C(=O)NC5CC5)cc4)cnc3c(NCC3CC3)n2)cc1 [Example 1-219] ?
6.30 to 7.30

* * *

System: A549
RUN DESCRIPTION: A549 assay: screening of cancer cell growth inhibiting compound
Format: cell-based
CONDITION SET: Homo sapiens, 72 h; A549 cells, three days, WST-8; read-out: A549 IC50
OBSERVED PROPERTY: IC50

{"MOLECULE": "CC(CNc1cc(NC2CCCCC2)nn2c(-c3ccc(C(=O)NC4CC4)cc3)cnc12)C(F)(F)F (stereo not shown) [Example 2-162]", "STUDY TARGET": "A549", "IC50": "50 to 500 nM"}
{"MOLECULE": "CC(C)CNc1nc(-c2cccc(N)c2)cn2c(-c3ccc(C(=O)NC4CC4)cc3)cnc12 [Example 1-124]", "STUDY TARGET": "A549", "IC50": "500 to 1000 nM"}
{"MOLECULE": "COC(C)CNc1cc(NC2CCCCC2)nn2c(-c3ccc(C(=O)NC4CC4)cc3)cnc12 (stereo not shown) [Example 2-166]", "STUDY TARGET": "A549", "IC50": "50 to 500 nM"}
{"MOLECULE": "CC(C)CNc1nc(-c2ccc(NC3CCOCC3)cc2)cn2c(-c3ccc(C(=O)NC4CC4)cc3)cnc12 [Example 1-170]", "STUDY TARGET": "A549", "IC50": "1000 to 10000 nM"}
{"MOLECULE": "Cc1cc(CNc2cc(NC3CCCCC3)nn3c(-c4ccc(C(=O)NC5CC5)cc4)cnc23)no1 [Example 2-158]", "STUDY TARGET": "A549", "IC50": "50 to 500 nM"}

Each molecule below has a reported value. Please supply its IC50.
1. COC1CCN(c2cc(NCC3CCOCC3)c3ncc(-c4ccc(C(=O)NC5CC5)cc4)n3n2)CC1 [Example 2-26]
2. CC1(Nc2cc(NCC3CCOCC3)c3ncc(-c4ccc(C(=O)NC5CC5)cc4)n3n2)CCOCC1 [Example 2-79]

1: 50 to 500 nM; 2: 50 to 500 nM

* * *

STUDY TARGET: UniProt P33981
Sequence (P33981 1-857): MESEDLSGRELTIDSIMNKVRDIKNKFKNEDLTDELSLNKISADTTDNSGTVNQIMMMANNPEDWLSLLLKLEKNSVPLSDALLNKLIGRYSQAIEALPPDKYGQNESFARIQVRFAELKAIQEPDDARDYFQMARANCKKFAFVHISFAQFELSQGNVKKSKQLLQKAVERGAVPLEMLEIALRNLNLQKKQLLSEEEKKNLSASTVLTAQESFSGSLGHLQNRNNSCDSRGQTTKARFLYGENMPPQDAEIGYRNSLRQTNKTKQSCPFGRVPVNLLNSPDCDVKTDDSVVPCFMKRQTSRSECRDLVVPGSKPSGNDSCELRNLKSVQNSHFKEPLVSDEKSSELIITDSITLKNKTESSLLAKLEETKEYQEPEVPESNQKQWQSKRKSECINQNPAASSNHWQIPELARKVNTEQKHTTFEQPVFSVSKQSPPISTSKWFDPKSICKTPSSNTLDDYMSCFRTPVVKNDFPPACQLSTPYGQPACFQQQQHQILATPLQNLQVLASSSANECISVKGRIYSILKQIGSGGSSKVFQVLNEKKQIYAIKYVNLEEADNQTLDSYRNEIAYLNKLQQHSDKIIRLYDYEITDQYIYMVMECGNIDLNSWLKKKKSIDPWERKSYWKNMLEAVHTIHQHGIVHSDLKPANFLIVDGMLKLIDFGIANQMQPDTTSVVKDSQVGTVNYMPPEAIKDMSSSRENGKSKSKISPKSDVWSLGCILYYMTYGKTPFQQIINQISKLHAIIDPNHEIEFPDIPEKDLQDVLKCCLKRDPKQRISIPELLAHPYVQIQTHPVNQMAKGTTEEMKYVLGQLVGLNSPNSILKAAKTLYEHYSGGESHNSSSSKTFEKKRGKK
RUN DESCRIPTION: TTK assay: screening of TTK kinase activity suppressing action using p38 MAPK peptide
Assay type: biochemical
CONDITION SET: read-out: TTK IC50
Protocol: Screening of a compound having a TTK kinase activity suppressing action using p38 MAPK peptide […] From the resultant mixture, an aliquot of 1.7 μL was taken out and mixed with the reaction terminating solution (60 μl) in the wells of a 384-well microtiter plate (manufactured by Corning Incorporated) made of polypropylene. […] Based on the fluorescence value in the absence of a test substance, the suppression activity of a test substance was measured.
Exercise: for every item that follows, state its recorded IC50.
One number for each entry, in nM.

// known answers, use as guide
{"COMPOUND": "O=C(NC1CC1)c1ccc(-c2cnc3c(NCC4CCOCC4)cc(NC4CCCC4)nn23)cc1O", "STUDY TARGET": "UniProt P33981", "UNIT LABEL": "nM", "EXPERIMENTAL RESULT": 4.4}
{"COMPOUND": "Cc1cc(C(=O)NC2CC2)ccc1-c1cnc2c(NCC3CCOCC3)cc(NC3CCCC3)nn12", "STUDY TARGET": "UniProt P33981", "UNIT LABEL": "nM", "EXPERIMENTAL RESULT": 6.9}

Record IC50 for all entries; do not skip any.
1. O=C(NC1CC1)c1ccc(-c2cnc3c(NCC4CCOCC4)cc(NC4CCCC4)nn23)cc1F
2. O=C(NC1CC1)c1ccc(-c2cnc3c(NCC4(O)CCOCC4)cc(NC4CCCCC4)nn23)cc1

[3.6, 7.2]

Hi, could you look up IC50 for each item in my list?
1. CC1(Oc2cc(NCC3CCOCC3)c3ncc(-c4ccc(C(=O)NC5CC5)cc4)n3n2)CCCCC1
2. CC(C)(Nc1cc(NCC2CCOCC2)c2ncc(-c3ccc(C(=O)NC4CC4)c(Cl)c3)n2n1)C(F)(F)F
3. O=C(NC1CC1)c1ccc(-c2cnc3c(NCC4CCOCC4)cc(C=C4CCCCC4)nn23)cc1
4. O=C(NC1CC1)c1ccc(-c2cnc3c(NCC4CCOCC4)cc(OC45CC6CC(CC(C6)C4)C5)nn23)cc1
5. COc1cc(NCC2CCOCC2)c2ncc(-c3ccc(C(=O)NC4CC4)cc3)n2n1

1: 3.5; 2: 3.9; 3: 5.7; 4: 6; 5: 20.3

Record IC50 per entry; entries follow.
1. O=C(NC1CC1)c1ccc(-c2cnc3c(NCC4CCOCC4)cc(OCC(F)(F)F)nn23)cc1
2. CC(Oc1cc(NCC2CCOCC2)c2ncc(-c3ccc(C(=O)NC4CC4)cc3)n2n1)C(F)(F)F (stereo not drawn)
3. O=C(NC1CC1)c1ccc(-c2cnc3c(NCC4CCOCC4)c(Cl)c(OC4CCCC4)nn23)cc1
4. O=C(NC1CC1)c1ccc(-c2cnc3c(NCC4CCOCC4)cc(OC4CCCCCC4)nn23)cc1
5. O=C(NC1CC1)c1ccc(-c2cnc3c(NCC4CCOCC4)cc(C4=CCNCC4)nn23)cc1
6. N#Cc1ccc(Oc2cc(NCC3CCOCC3)c3ncc(-c4ccc(C(=O)NC5CC5)cc4)n3n2)cc1
7. COCCOc1cc(NCC2CCOCC2)c2ncc(-c3ccc(C(=O)NC4CC4)cc3)n2n1

1: 5.7; 2: 5.6; 3: 2.7; 4: 10.2; 5: 8.3; 6: 14.3; 7: 11.4

Quick one: give me IC50 for each item below, same order please.
1. O=C(NC1CC1)c1ccc(-c2cnc3c(NCC4CCOCC4)cc(OCC45CC6CC(CC(C6)C4)C5)nn23)cc1
2. CC(=O)N1CC=C(c2cc(NCC3CCOCC3)c3ncc(-c4ccc(C(=O)NC5CC5)cc4)n3n2)CC1
3. CC1(C)CCC(Oc2cc(NCC3CCOCC3)c3ncc(-c4ccc(C(=O)NC5CC5)cc4)n3n2)CC1
4. CC(CO)CNc1cc(NC2CCCCC2)nn2c(-c3ccc(C(=O)NC4CC4)cc3)cnc12 (stereo not drawn)

1. 16.1
2. 12
3. 7.8
4. 3.3

Batch of 6 compounds: report IC50 for each.
1. O=C(NC1CC1)c1ccc(-c2cnc3c(NCC4CCCO4)cc(NC4CCCCC4)nn23)cc1 (stereo not drawn)
2. O=C(NC1CC1)c1ccc(-c2cnc3c(NCC4CCOCC4)cc(CC4CCCCC4)nn23)cc1
3. Cc1cc(C#N)ccc1-c1cc(NCC2CCOCC2)c2ncc(-c3ccc(C(=O)NC4CC4)cc3)n2n1
4. O=C(NC1CC1)c1ccc(-c2cnc3c(NCC4CCOCC4)c(Cl)c(NC4CCCC4)nn23)cc1
5. COc1ccc(Oc2cc(NCC3CCOCC3)c3ncc(-c4ccc(C(=O)NC5CC5)cc4)n3n2)cc1
6. N#Cc1cccc(-c2cc(NCC3CCOCC3)c3ncc(-c4ccc(C(=O)NC5CC5)cc4)n3n2)c1

1. 3.9
2. 7.1
3. 3.5
4. 12.6
5. 3.7
6. 4.7

For every listed record, write down its IC50.
1. O=C(NC1CC1)c1ccc(-c2cnc3c(NCC4CCOCC4)cc(OC4CCNCC4)nn23)cc1
2. CC(C)(Oc1cc(NCC2CCOCC2)c2ncc(-c3ccc(C(=O)NC4CC4)cc3)n2n1)C(F)(F)F
3. N#Cc1ccc(-c2cc(NCC3CCOCC3)c3ncc(-c4ccc(C(=O)NC5CC5)cc4)n3n2)c(Cl)c1

1: 12.2; 2: 2.7; 3: 2.8

Sample "O=C(NC1CC1)c1ccc(-c2cnc3c(NCC4CCOCC4)cc(C4CCNCC4)nn23)cc1" — what was its IC50?
23.1

The origin of these recorded values is patent US20120059162A1.
